experimental.target: human IDO1 (Homo sapiens, UniProt P14902)
Sequence (P14902 whole entry): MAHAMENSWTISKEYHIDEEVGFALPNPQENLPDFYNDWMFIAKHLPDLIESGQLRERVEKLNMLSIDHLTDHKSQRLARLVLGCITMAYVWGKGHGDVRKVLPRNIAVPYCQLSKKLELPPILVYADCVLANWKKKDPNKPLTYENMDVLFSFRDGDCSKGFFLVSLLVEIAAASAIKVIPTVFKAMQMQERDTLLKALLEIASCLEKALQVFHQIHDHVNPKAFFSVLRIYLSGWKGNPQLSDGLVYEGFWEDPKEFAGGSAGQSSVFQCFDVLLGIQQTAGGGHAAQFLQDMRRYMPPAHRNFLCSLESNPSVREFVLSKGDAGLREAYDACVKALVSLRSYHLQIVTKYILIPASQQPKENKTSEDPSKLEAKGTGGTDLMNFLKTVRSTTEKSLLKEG
procedure.text: Assessment of human IDO-1 inhibitory activity in Hela cells (Interferon-gamma stimulated HeLa cells, Ehrlich reagent, absorbance 490 nm)
Type: cell-based
Set-up: endogenous in cells; host or cells: HeLa cells stimulated with interferon-gamma
test.parameters: Hela Human IDO-1 cellular assay
measurement.kind: IC50

# annotated cases, reported IC50 shown
• CCCN(c1ccc([C@H](CC)CC(=O)O)cc1Nc1ccc(OC)nc1)C1CCOCC1 (single isomer, unassigned) = < 5 nM
• COCC(CC(=O)O)c1ccc(N2CCC(c3ccccc3)CC2)c(NC(=O)Nc2ccc(Cl)cc2F)c1 (single isomer, unassigned) [Example 1357 E1] = > 50 nM
• CCN(c1ccc([C@@H](COC)CC(=O)O)cc1Nc1ccc(C#N)c(C)n1)C1CCOCC1 (single isomer, unassigned) = < 50 nM
• CCC(CC(=O)O)c1ccc(N(CCOC)C2CCOCC2)c(Nc2ccc(Cl)cc2)c1 (single isomer, unassigned) [Example 1257 E1] = < 5 nM
• COCC(CC(=O)O)c1ccc(N2C[C@@H](C)O[C@@H](C)C2)c(NC(=O)Nc2ccc(Cl)cc2F)c1 (single isomer, unassigned) = > 50 nM

-- ask Specify measured IC50 for CC[C@@H](CC(=O)O)c1ccc(N(CC2CC2)CC(C)(C)O)c(Nc2ccc(Cl)cc2)c1 (single isomer, unassigned) .
-- reply < 5 nM

-- ask Note down IC50 recorded for COCCN(c1ccc(C(C)(C)CC(=O)O)cc1NC(=O)Nc1ccc(C#N)cc1)C1CCOCC1
-- reply > 50 nM

-- ask Given the molecule CCC(CC(=O)O)c1ccc(N(CC)C2CCCOC2)c(Nc2cnc(OC)nc2)c1 (single isomer, unassigned) [Example 62] , write its reported IC50.
-- reply < 5 nM

-- ask Give the value of IC50 reported for the following: CCC(CC(=O)O)c1ccc(N(CCOC)C2CCOCC2)c(Nc2cnc(OC)nc2)c1 (single isomer, unassigned)
-- reply < 50 nM

-- ask Dear colleague, please send me the reported IC50 for CCN(c1ccc([C@@H](COC)CC(=O)O)cc1Nc1ccc(C#N)cn1)C1CCOCC1 (single isomer, unassigned) when you can.
-- reply < 50 nM
